ASSAY SUMMARY: Plasma clearance in rat at 1 mg/kg, iv or 2 mg/kg, po
Assay type: ADME, organism-based
MEASURED METRIC: clearance (mL/min/kg)

Solved cases below.
Exercise: // lookup clearance for "O=C(c1ccc(C[C@@H]2CC[C@H]([C@H](O)c3ccccc3)N2)cc1)N1CCN(Cc2nnn(CC(F)(F)F)n2)CC1"
Key: 98

Exercise: // lookup clearance for "O=C(c1ccc(C[C@@H]2CC[C@H]([C@H](O)c3ccccc3)N2)cc1)N1CCN(Cc2nnn(CC(F)F)n2)CC1"
Key: 102

Exercise: // lookup clearance for "O=C(c1ccc(C[C@@H]2CC[C@H]([C@H](O)c3ccccc3)N2)cc1)N1CCN(Cc2ncn(CC(F)(F)F)n2)CC1"
Key: 105

(1) O=C(c1ccc(C[C@@H]2CC[C@H]([C@H](O)c3ccccc3)N2)cc1)N1CCN(Cc2ncn(CC(F)F)n2)CC1
(2) O=C(c1ccc(C[C@@H]2CC[C@H]([C@H](O)c3ccccc3)N2)cc1)N1CCN(Cc2ccccn2)CC1
Exercise: // task: argmin of clearance over [ 1 , 2 ] Provide the label of your selected option as the answer.
Key: 2
(2: 71 mL/min/kg, 1: 111 mL/min/kg)

All values here come from ChEMBL document CHEMBL4002615.
